These measurements were taken from patent US20240368151A1.

target: 5-HT2A receptor (Homo sapiens (Human)); type: cell-based; details: Ca^2+ flux, HEK293
Would you mind labelling by 5-HT2A % Act @ Max Dose? At or over 90% is true, under is false.

• CCC[C@@H](C)NC(=O)[C@@H]1C=C2c3cccc4[nH]cc(c34)C[C@H]2N(CCC)C1 [Compound 7] = true
• CCN(CC)C(=O)[C@@H]1C=C2c3cccc4[nH]cc(c34)C[C@H]2N(CCCF)C1 [Compound 2] = true
• CC[C@@H](C)NC(=O)[C@@H]1C=C2c3cccc4[nH]cc(c34)C[C@H]2N(C)C1 [Int8] = true
• CCN(CC)C(=O)[C@@H]1C=C2c3cccc4[nH]cc(c34)C[C@H]2N(CCc2ccccn2)C1 [Compound 23] = false
• CCC[C@@H](C)NC(=O)[C@H]1C=C2c3cccc4[nH]cc(c34)C[C@H]2N(C)C1 [Int17a] = false
• CCN(CC)C(=O)[C@@H]1C=C2c3cccc4[nH]cc(c34)C[C@H]2N(Cc2ccccn2)C1 [Compound 22] = false
• CCN(CC)C(=O)[C@@H]1C=C2c3cccc4[nH]cc(c34)C[C@H]2N(Cc2ccc(OC)cc2)C1 [Compound 19] = false
• CCN(CC)C(=O)[C@@H]1C=C2c3cccc4[nH]cc(c34)C[C@H]2N(CCc2ccc(OC)cc2)C1 [Compound 21] = false
• CCN(CC)C(=O)[C@@H]1C=C2c3cccc4[nH]cc(c34)C[C@H]2N(Cc2cccc(OC)c2)C1 [Compound 18] = false
• CCCN1C[C@H](C(=O)NC(CC)CC)C=C2c3cccc4[nH]cc(c34)C[C@H]21 [Compound 6] = true
• CC[C@@H](C)NC(=O)[C@@H]1C=C2c3cccc4[nH]cc(c34)C[C@H]2N(CC)C1 [Compound 5] = true
• CCN(CC)C(=O)[C@@H]1C=C2c3cccc4[nH]cc(c34)C[C@H]2N(C)C1 [LSD, lysergic acid diethylamide, reference compound] = true
• CCCN1C[C@H](C(=O)N[C@H](C)CC)C=C2c3cccc4[nH]cc(c34)C[C@H]21 [Compound 3] = true
